- condition.summary: in ethyl acetate, 298.15 K
parameter.measured: solubility (mole fraction)
Give the value as a plain number.

# query: solubility (mole fraction) of entry O=C1NC(=O)c2ccccc21
0.00749

* * *

- condition.summary: in ethanol, 283.15 K
parameter.measured: solubility (mole fraction)
Reply with just the number.

Suppose we examine the compound O=C1NC(=O)c2ccccc21 ; what solubility (mole fraction) value has been reported?
0.00116

* * *

- condition.summary: in n-propanol, 288.15 K
parameter.measured: solubility (mole fraction)
No unit in the answer, only the number.

Requested read-out: solubility (mole fraction). Entry: O=C1NC(=O)c2ccccc21
0.00188

* * *

- condition.summary: in acetonitrile, 300.15 K
parameter.measured: solubility (mole fraction)
Keep the answer to the number alone.

For the compound O=C1NC(=O)c2ccccc21 , what solubility (mole fraction) is on record?
0.00335
